Tested on: NCI-H1734
Assay: relative viability (nuclei count vs DMSO), 5 days (fraction); higher = more cells survive
Conditions: first compound 0.03162 µM
READOUT KIND: relative viability
// no unit, no text: just the number

Examples with their reported relative viability follow.
O=c1cc(N2CCOCC2)oc2c(-c3cccc4c3sc3ccccc34)cccc12 + O=C(c1cc(Cc2n[nH]c(=O)c3ccccc23)ccc1F)N1CCN(C(=O)C2CC2)CC1 [Olaparib] (partner 8 µM); 0.638
CCN(CC)CCCCNc1ncc2cc(-c3cc(OC)cc(OC)c3)c(NC(=O)NC(C)(C)C)nc2n1 + CC(=O)c1c(C)c2cnc(Nc3ccc(N4CCNCC4)cn3)nc2n(C2CCCC2)c1=O [Palbociclib] (partner 0.5 µM); 0.281
O=c1cc(N2CCOCC2)oc2c(-c3cccc4c3sc3ccccc34)cccc12 + Cc1cc(Nc2cc(N3CCN(C)CC3)nc(Sc3ccc(NC(=O)C4CC4)cc3)n2)n[nH]1 [Tozasertib] (partner 0.1 µM); 0.264
CCN(CC)CCCCNc1ncc2cc(-c3cc(OC)cc(OC)c3)c(NC(=O)NC(C)(C)C)nc2n1 + COc1cccc2cc(-c3nc([C@H]4CC[C@H](C(=O)O)CC4)n4ncnc(N)c34)[nH]c12 [OSI-027] (partner 0.5 µM); 0.61

Param readout= relative viability; system= NCI-H1734; entry= CCN(CC)CCCCNc1ncc2cc(-c3cc(OC)cc(OC)c3)c(NC(=O)NC(C)(C)C)nc2n1 + N=C(N)NC(=N)NCCc1ccccc1 [Phenformin] (partner 250 µM) ; returns value.
0.363
